system: Hep 3B2; assay: Cytotoxicity against human Hep3B cells after 3 days by MTT method; assay type: functional, cell-based
The source made the active and inactive calls. No cut-off for these calls is given here.
Observed Property: Activity

> print(dat)
                                smiles.code  measured.target    result
1  C[C@H]1[C@H](C)CC[C@@]23CC[C@]4(C)[C@@](C=C[C@@H]5[C@@]6(C)CC[C@H](O)C(C)(C)[C@@H]6CC[C@]54C)(OC2)[C@H]13          Hep 3B2  inactive
2  C[C@H]1[C@H](C)CC[C@]23CO[C@@]4(C=C[C@@H]5[C@@]6(C)CC[C@H](O)C(C)(C)[C@@H]6CC[C@@]5(C)[C@]4(C)C[C@@H]2O)[C@H]13          Hep 3B2  inactive
3  C=C(CO)[C@@H]1CC[C@]2(CO)CC[C@]3(C)[C@H](CC[C@@H]4[C@@]5(C)CC[C@H](O)C(C)(C)[C@@H]5CC[C@]43C)[C@@H]12          Hep 3B2  inactive
4  CO[C@@H]1C=C2[C@@H]3[C@@H](C)[C@H](C)CC[C@]3(CO)CC[C@@]2(C)[C@]2(C)CC[C@H]3C(C)(C)[C@@H](O)CC[C@]3(C)[C@@H]12          Hep 3B2  inactive
5  CC1(C)CC[C@@]23CC[C@]4(C)[C@@](C=C[C@@H]5[C@@]6(C)CC[C@H](O)C(C)(C)[C@@H]6CC[C@]54C)(OC2)[C@@H]3C1          Hep 3B2  inactive

====

system: HepG2; test: Cytotoxicity against human Hep G2 cells after 3 days by MTT method; assay type: functional, cell-based
The source made the active and inactive calls. The rule behind the calls is not given here.
Observed Property: Activity

> print(dat)
                                 smiles.code    result
 1  C=C(CO)[C@@H]1CC[C@]2(C)CC[C@]3(C)[C@H](CC[C@@H]4[C@@]5(C)CC[C@H](O)C(C)(C)[C@@H]5CC[C@]43C)[C@@H]12  inactive
 2   O=c1c(O)c(-c2ccc(O)cc2)oc2cc(O)cc(O)c12  inactive
 3  CC1(C)C(=O)CC[C@]2(C)[C@H]3C=C[C@]45OC[C@@]6(CC[C@](C)(CO)C[C@H]64)CC[C@@]5(C)[C@]3(C)CC[C@@H]12  inactive
 4  CO[C@@H]1C=C2[C@@H]3[C@@H](C)[C@H](C)CC[C@]3(C)CC[C@@]2(C)[C@]2(C)CC[C@H]3C(C)(C)[C@@H](O)CC[C@]3(C)[C@@H]12  inactive
 5  C[C@H]1[C@H](C)CC[C@]23CO[C@@]4(C=C[C@@H]5[C@@]6(C)CC[C@H](O)C(C)(C)[C@@H]6CC[C@@]5(C)[C@]4(C)C[C@@H]2O)[C@H]13  inactive
 6  CC1(C)CC[C@@]23CC[C@]4(C)[C@@](C=C[C@@H]5[C@@]6(C)CC[C@H](O)C(C)(C)[C@@H]6CC[C@]54C)(OC2)[C@@H]3C1  inactive
 7                   COC(=O)/C=C/c1ccc(O)cc1  inactive
 8  C=C(CO)[C@@H]1CC[C@]2(CO)CC[C@]3(C)[C@H](CC[C@@H]4[C@@]5(C)CC[C@H](O)C(C)(C)[C@@H]5CC[C@]43C)[C@@H]12  inactive
 9  C[C@H]1[C@H](C)CC[C@]2(CO)CC[C@]3(C)C(=CC[C@@H]4[C@@]5(C)CC[C@H](O)C(C)(C)[C@@H]5CC[C@]43C)[C@H]12  inactive
10  Oc1cc(O)c2c(c1)O[C@H](c1ccc(O)c(O)c1)[C@H](O)C2  inactive
11  C[C@H]1[C@H](C)CC[C@@]23CC[C@]4(C)[C@@](C=C[C@@H]5[C@@]6(C)CC[C@H](O)[C@@](C)(CO)[C@@H]6CC[C@]54C)(OC2)[C@H]13  inactive
12  C[C@H]1[C@H](C)CC[C@@]23CC[C@]4(C)[C@@](C=C[C@@H]5[C@@]6(C)CC[C@H](O)C(C)(C)[C@@H]6CC[C@]54C)(OC2)[C@H]13  inactive
